Overview of recorded pIC50 for various compounds
molecular target: human ghrelin receptor (GRLN, growth hormone secretagogue receptor, hGHS-R1a) (Homo sapiens); construct: purchased PerkinElmer BioSignal #RBHGHSM, lot#1887; host or cells: HEK-293 cells, stably transfected (membranes); assay: Competitive radioligand binding assay (ghrelin receptor), Method B1; details: Ghrelin receptor binding activity, Method B1
pIC50: −log10 of the molar value.

Request: Please report the recorded pIC50 for CC[C@@H]1CCc2c(F)cccc2OCCN[C@@H](C(C)C)C(=O)N(C)[C@@H](C(C)O)C(=O)N[C@H](Cc2ccc(F)cc2)C(=O)N1 (stereo partly drawn) .
Response: 7.00 to 8.00

Request: What do you have for CCC1CCc2ccc(Cl)cc2OCCNC(C(C)C)C(=O)N(C)C(C(C)O)C(=O)NC(Cc2c[nH]c3ccccc23)C(=O)N1 (stereo not drawn) ?
Response: 7.00 to 8.00

Request: Thanks! And CC1CCc2ccccc2OCCNC(C(C)(C)C)C(=O)N(C)C(C(C)O)C(=O)NC(Cc2cccc(F)c2)C(=O)N1 (stereo not drawn) ?
Response: 8.00 to 9.00

----------
target: GHS-R1a receptor (HEK293 cells expressing GHS-R1a receptor) (Homo sapiens); construct: host or cells: HEK293; experiment: Fluorescence functional assay (ghrelin receptor), Method B2, agonist and antagonist mode; type: cell-based; settings: functional activity as an antagonist at the ghrelin receptor, Methods B2 and B3
Sequence (Q92847 whole entry): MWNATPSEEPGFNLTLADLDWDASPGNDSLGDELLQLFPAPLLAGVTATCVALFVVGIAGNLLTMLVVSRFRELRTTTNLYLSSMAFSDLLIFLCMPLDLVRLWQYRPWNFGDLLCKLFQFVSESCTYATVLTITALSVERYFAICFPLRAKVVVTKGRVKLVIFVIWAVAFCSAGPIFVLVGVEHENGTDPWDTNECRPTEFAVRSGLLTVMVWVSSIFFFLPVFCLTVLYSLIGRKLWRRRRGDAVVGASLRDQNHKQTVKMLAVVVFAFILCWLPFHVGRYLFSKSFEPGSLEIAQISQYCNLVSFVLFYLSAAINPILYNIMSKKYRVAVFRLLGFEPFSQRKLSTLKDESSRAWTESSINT
Metric name: Antagonist Activity

// solved cases for Antagonist Activity follow
{"Compound": "CC(C)[C@@H]1NCCOc2cc(F)ccc2CCCNC(=O)[C@@H](Cc2ccccc2)NC(=O)[C@H](C(C)O)N(C)C1=O (stereo partly drawn)", "Antagonist Activity": "C (C = 10-100 nM)"}
{"Compound": "CC(C)[C@@H]1NCCOc2cccc(F)c2CC[C@@H](C)NC(=O)[C@@H](Cc2ccccc2)NC(=O)[C@H](C(C)O)N(C)C1=O (stereo partly drawn)", "Antagonist Activity": "B (B = 1-10 nM)"}
{"Compound": "CC[C@@H]1CCc2ccc(F)cc2OCCN[C@@H](C(C)C)C(=O)N(C)[C@@H](C(C)O)C(=O)N[C@H](Cc2c[nH]c3ccccc23)C(=O)N1 (stereo partly drawn)", "Antagonist Activity": "B (B = 1-10 nM)"}
{"Compound": "CC(C)[C@@H]1NCC2CCc3cccc(c3O2)CCCNC(=O)[C@@H](Cc2ccccc2)NC(=O)[C@H](C(C)O)N(C)C1=O (stereo partly drawn)", "Antagonist Activity": "B (B = 1-10 nM)"}

Request: What Antagonist Activity value was documented for this compound, CC(C)[C@@H]1NCCOc2ccccc2/C=C/CNC(=O)[C@@H](Cc2cccc(O)c2)NC(=O)[C@H](C(C)O)N(C)C1=O (stereo partly drawn) ?
Response: C (C = 10-100 nM)

----------
molecular target: human ghrelin receptor (GRLN, growth hormone secretagogue receptor, hGHS-R1a) (Homo sapiens, UniProt Q92847); construct: purchased PerkinElmer BioSignal #RBHGHSM, lot#1887; host or cells: HEK-293 cells, stably transfected (membranes); experiment: Competitive radioligand binding assay (ghrelin receptor), Method B1; details: Ghrelin receptor binding activity, Method B1
Sequence (Q92847 whole entry): as above
Metric name: IC50

Consider the following illustrative entries.
{"Molecule": "CCC(C)C1NCCOc2ccccc2C=CCNC(=O)C(Cc2ccc(Cl)cc2Cl)NC(=O)C(C(C)O)N(C)C1=O (stereo not drawn) [Compound 1761]", "IC50": "10 to 100 nM"}
{"Molecule": "CC(O)[C@H]1C(=O)N[C@H](Cc2ccc(Cl)cc2)C(=O)NC/C=C/c2ccccc2OCCN[C@@H](C2CCCCC2)C(=O)N1C (stereo partly drawn) [Compound 1710]", "IC50": "10 to 100 nM"}

Request: Any idea what IC50 was measured for CC[C@@H]1CCc2ccc(F)cc2OCCN[C@@H](C2(C)CC2)C(=O)N(C)[C@@H](C(C)O)C(=O)N[C@H](Cc2ccc(Cl)cc2)C(=O)N1 (stereo partly drawn) [Compound 1875] ?
Response: 1 to 10 nM

Request: And the next one, CC(C)[C@@H]1NCCOc2ccccc2C2CCC(C2)NC(=O)[C@@H](Cc2c[nH]c3ccccc23)NC(=O)[C@H](C(C)O)N(C)C1=O (stereo partly drawn) [Compound 1843] ?
Response: 10 to 100 nM

Request: What do you have for CCCC1CCc2ccccc2OCCNC(C(C)C)C(=O)N(C)C(C(C)O)C(=O)NC(Cc2c[nH]c3ccccc23)C(=O)N1 (stereo not drawn) [Compound 1697] ?
Response: 100 to 500 nM

Request: Would you kindly repeat that for CCC(C)[C@@H]1NCCO[C@H]2CCC[C@H]2CCCNC(=O)[C@@H](Cc2ccc(Cl)cc2)NC(=O)[C@H](C(C)O)N(C)C1=O (stereo partly drawn) [Compound 1714] ?
Response: 1 to 10 nM

----------
IC50 reference
target: ghrelin receptor (HEK-GHSR1 stable cells) (Homo sapiens); construct: expressed in transfected cells; test: Ghrelin receptor inverse agonist assay (HTRF IP-one), Method B4; format: cell-based; details: inverse agonist at the ghrelin receptor, Method B4
Sequence (Q92847 whole entry): as above

Illustrative cases are given below, each with its answer.
{"Molecule": "CC(C)C1NCCOc2cccc(F)c2C=CCNC(=O)C(C(C)c2ccccc2)NC(=O)C(C(C)O)N(C)C1=O (stereo not drawn) [Compound 1811]", "Metric name": "IC50", "Readout value": "100 to 500 nM"}
{"Molecule": "CC(O)[C@H]1C(=O)N[C@H](Cc2c[nH]c3ccccc23)C(=O)N[C@H](C)C#Cc2ccccc2OCCN[C@@H](C2(C)CC2)C(=O)N1C (stereo partly drawn) [Compound 1713]", "Metric name": "IC50", "Readout value": "50 to 100 nM"}
{"Molecule": "CCC(C)C1NCCOc2ccccc2C#CCNC(=O)C(Cc2ccc(Cl)cc2)NC(=O)C(C(C)O)N(C)C1=O (stereo not drawn) [Compound 1704]", "Metric name": "IC50", "Readout value": "100 to 500 nM"}
{"Molecule": "CC(O)[C@H]1C(=O)N[C@H](Cc2ccc(F)cc2)C(=O)N[C@H](C)CCc2ccccc2OCCN[C@@H](C2CCCCC2)C(=O)N1C (stereo partly drawn) [Compound 1743]", "Metric name": "IC50", "Readout value": "100 to 500 nM"}
{"Molecule": "CC[C@@H]1C#Cc2ccccc2O[C@H](C)CN[C@@H](C2(C)CC2)C(=O)N(C)[C@@H](C(C)O)C(=O)N[C@H](Cc2c[nH]c3ccccc23)C(=O)N1 (stereo partly drawn) [Compound 1718]", "Metric name": "IC50", "Readout value": "50 to 100 nM"}

Here is the next item to consider.
Request: Bench note: what IC50 did CCC(C)C1NCCOc2ccccc2C=CCNC(=O)C(Cc2ccc(Cl)cc2Cl)NC(=O)C(C(C)O)N(C)C1=O (stereo not drawn) [Compound 1761] show?
Response: 50 to 100 nM

----------
experiment: Metabolic stability in human liver microsomes, Method B8; format: in vitro ADME; settings: human liver microsomes 0.8 mg/mL, 5 μM compound, 37° C.
The recorded HLM, metabolic stability in human liver microsomes of each item maps onto one of these classes: low end = under 30 μL/min/mg protein, middle = from 30 μL/min/mg protein up to 50 μL/min/mg protein, high end = 50 μL/min/mg protein and over

Below are worked cases with known answers.
{"Compound": "CC(C)[C@@H]1NCCOc2ccccc2CC[C@@H](C)NC(=O)[C@@H](Cc2cccc(C(F)(F)F)c2)NC(=O)[C@H](C(C)O)N(C)C1=O (stereo partly drawn) [Compound 1412]", "Assigned class": "middle"}
{"Compound": "CC[C@@H]1C#Cc2ccc(F)cc2O[C@H](C)CN[C@@H](C2(C)CC2)C(=O)N(C)[C@@H](C(C)O)C(=O)N[C@H](Cc2c[nH]c3ccccc23)C(=O)N1 (stereo partly drawn) [Compound 1707]", "Assigned class": "low end"}

Request: Sort CC[C@@H]1NCC2CCc3cccc(c3O2)CCCNC(=O)[C@@H](Cc2ccccc2)NC(=O)[C@H](C(C)O)N(C)C1=O (stereo partly drawn) [Compound 1780] into one of the categories.
Response: low end

Request: Another compound: CC(C)[C@@H]1NCCOc2ccccc2CC[C@@H](C)NC(=O)[C@@H](Cc2cccc(C#N)c2)NC(=O)[C@H](C(C)O)N(C)C1=O (stereo partly drawn) [Compound 1374]
Response: middle

Request: Likewise for COc1cccc(C[C@H]2NC(=O)[C@H](C(C)O)N(C)C(=O)[C@H](C(C)C)NCCOc3cc(F)ccc3CC[C@@H](C)NC2=O)c1 (stereo partly drawn) [Compound 1473] ?
Response: low end

Request: Can you handle CC[C@@H]1CCc2ccc(F)cc2OCCN[C@@H](C2(C)CC2)C(=O)N(C)[C@@H](C(C)O)C(=O)N[C@H](Cc2ccccc2)C(=O)N1 (stereo partly drawn) [Compound 1746] next?
Response: middle

Request: Repeat with CC(C)[C@@H]1NCCOc2ccccc2/C=C/CNC(=O)[C@@H](Cc2cccc(Cl)c2)NC(=O)[C@H](C(C)O)N(C)C1=O (stereo partly drawn) [Compound 1432]
Response: low end

This collection of values is drawn from patent US20110105389A1.
